The measurements presented in this section are drawn from patent US8143397B2.

assay: Particle size distribution (Malvern laser particle size analyser); type: physicochemical; conditions: dispersed in 0.1% Tween 20 in DI water, sonicated 2 minutes
Rule: Particle Size Distribution D(v, 0.5) below 20 μm gives 1, anything at or above gives -1.

• C[C@@H](c1ncncc1F)[C@](O)(Cn1cncn1)c1ccc(F)cc1F [Example 18, Voriconazole] = 1
• C[C@@H](c1ncncc1F)[C@](O)(Cn1cncn1)c1ccc(F)cc1F [Example 2, Voriconazole] = -1
• C[C@@H](c1ncncc1F)[C@](O)(Cn1cncn1)c1ccc(F)cc1F [Example 22, Voriconazole] = 1
• C[C@@H](c1ncncc1F)[C@](O)(Cn1cncn1)c1ccc(F)cc1F [Example 19, Voriconazole] = -1
• C[C@@H](c1ncncc1F)[C@](O)(Cn1cncn1)c1ccc(F)cc1F [Example 20, Voriconazole] = 1

###

test: Particle size distribution (Malvern laser particle size analyser); type: physicochemical; details: dispersed in 0.1% Tween 20 in DI water, sonicated 2 minutes
quantity: Particle Size Distribution D(v, 0.5)

• C[C@@H](c1ncncc1F)[C@](O)(Cn1cncn1)c1ccc(F)cc1F [Example 24, Voriconazole] = 147.6 μm
• C[C@@H](c1ncncc1F)[C@](O)(Cn1cncn1)c1ccc(F)cc1F [Example 25, Voriconazole] = 17.5 μm
• C[C@@H](c1ncncc1F)[C@](O)(Cn1cncn1)c1ccc(F)cc1F [Example 21, Voriconazole] = 16.7 μm
• C[C@@H](c1ncncc1F)[C@](O)(Cn1cncn1)c1ccc(F)cc1F [Example 23, Voriconazole] = 17.9 μm

###

Parameter: Particle Size Distribution D(v, 0.9). Scope: all listed entries.
assay: Particle size distribution (Malvern laser particle size analyser); type: physicochemical; details: dispersed in 0.1% Tween 20 in DI water, sonicated 2 minutes
quantity: Particle Size Distribution D(v, 0.9) (μm)

• C[C@@H](c1ncncc1F)[C@](O)(Cn1cncn1)c1ccc(F)cc1F [Example 25, Voriconazole] = 37.2
• C[C@@H](c1ncncc1F)[C@](O)(Cn1cncn1)c1ccc(F)cc1F [Example 24, Voriconazole] = 350.0
• C[C@@H](c1ncncc1F)[C@](O)(Cn1cncn1)c1ccc(F)cc1F [Example 18, Voriconazole] = 37.4
• C[C@@H](c1ncncc1F)[C@](O)(Cn1cncn1)c1ccc(F)cc1F [Example 19, Voriconazole] = 43.4

###

experiment: Particle size distribution (Malvern laser particle size analyser); format: physicochemical; settings: dispersed in 0.1% Tween 20 in DI water, sonicated 2 minutes
Parameter: Particle Size Distribution D(v, 0.9). Scope: all listed entries.
quantity: Particle Size Distribution D(v, 0.9)

- C[C@@H](c1ncncc1F)[C@](O)(Cn1cncn1)c1ccc(F)cc1F [Example 2, Voriconazole]: 220.0 μm
- C[C@@H](c1ncncc1F)[C@](O)(Cn1cncn1)c1ccc(F)cc1F [Example 22, Voriconazole]: 39.1 μm
- C[C@@H](c1ncncc1F)[C@](O)(Cn1cncn1)c1ccc(F)cc1F [Example 21, Voriconazole]: 34.1 μm
- C[C@@H](c1ncncc1F)[C@](O)(Cn1cncn1)c1ccc(F)cc1F [Example 23, Voriconazole]: 37.5 μm
- C[C@@H](c1ncncc1F)[C@](O)(Cn1cncn1)c1ccc(F)cc1F [Example 20, Voriconazole]: 34.1 μm

###

assay: Particle size distribution (Malvern laser particle size analyser); format: physicochemical; details: dispersed in 0.1% Tween 20 in DI water, sonicated 2 minutes
Parameter: Mean Diameter. Scope: all listed entries.
quantity: Mean Diameter (μm)

- C[C@@H](c1ncncc1F)[C@](O)(Cn1cncn1)c1ccc(F)cc1F [Example 25, Voriconazole]: 19.4
- C[C@@H](c1ncncc1F)[C@](O)(Cn1cncn1)c1ccc(F)cc1F [Example 22, Voriconazole]: 21.0
- C[C@@H](c1ncncc1F)[C@](O)(Cn1cncn1)c1ccc(F)cc1F [Example 21, Voriconazole]: 18.3
- C[C@@H](c1ncncc1F)[C@](O)(Cn1cncn1)c1ccc(F)cc1F [Example 19, Voriconazole]: 23.3
- C[C@@H](c1ncncc1F)[C@](O)(Cn1cncn1)c1ccc(F)cc1F [Example 23, Voriconazole]: 19.8
- C[C@@H](c1ncncc1F)[C@](O)(Cn1cncn1)c1ccc(F)cc1F [Example 20, Voriconazole]: 17.5
- C[C@@H](c1ncncc1F)[C@](O)(Cn1cncn1)c1ccc(F)cc1F [Example 18, Voriconazole]: 18.7
